tested.on: HLA-B*07:02
method: IEDB peptide-MHC binding, purified MHC/competitive/radioactivity; filed as Kd, often an IC50 or EC50 that approximates it; bounds were set here for any values at or beyond the usual limits of such assays
condition.parameters: source organism: Hepacivirus hominis
pKd: −log10 of the molar value.
measured.parameter: pKd

Note to self: pKd recorded for "HSKKKCDDL" was ≤ 4.18

* * *

tested.on: HLA-A*02:01
method: IEDB peptide-MHC binding, purified MHC/competitive/fluorescence; filed as Kd, often an IC50 or EC50 that approximates it; bounds were set here for any values at or beyond the usual limits of such assays
condition.parameters: source organism: Yersinia mollaretii ATCC 43969
pKd: −log10 of the molar value.
measured.parameter: pKd

Measured pKd (HLA-A*02:01), entry "DEQEFFYSQ" : ≤ 4.70

* * *

tested.on: HLA-A*11:01
method: IEDB peptide-MHC binding, purified MHC/direct/fluorescence; filed as Kd, often an IC50 or EC50 that approximates it; bounds were set here for any values at or beyond the usual limits of such assays
condition.parameters: source organism: Yellow fever virus
measured.parameter: Kd

Note to self: Kd recorded for "KTALTGAMR" was 15.1 nM

* * *

tested.on: HLA-B*57:01
method: IEDB peptide-MHC binding, purified MHC/direct/fluorescence; filed as Kd, often an IC50 or EC50 that approximates it; bounds were set here for any values at or beyond the usual limits of such assays
condition.parameters: source organism: Escherichia coli O157:H7 str. EC869
measured.parameter: Kd

Note to self: Kd recorded for "SQFNHWFGE" was ≥ 20 µM

* * *

tested.on: HLA-A*02:19
method: IEDB peptide-MHC binding, purified MHC/competitive/fluorescence; filed as Kd, often an IC50 or EC50 that approximates it; bounds were set here for any values at or beyond the usual limits of such assays
condition.parameters: source organism: Escherichia coli str. K-12 substr. W3110
pKd: −log10 of the molar value.
measured.parameter: pKd

Note to self: pKd recorded for "IQFDWYPTS" was ≤ 4.70

* * *

tested.on: HLA-A*30:01
method: IEDB peptide-MHC binding, purified MHC/competitive/fluorescence; filed as Kd, often an IC50 or EC50 that approximates it; bounds were set here for any values at or beyond the usual limits of such assays
condition.parameters: source organism: Listeria monocytogenes J0161
measured.parameter: Kd

Note to self: Kd recorded for "AALEGLSGF" was ≥ 5 µM

* * *

tested.on: HLA-B*44:02
method: IEDB peptide-MHC binding, purified MHC/competitive/fluorescence; filed as Kd, often an IC50 or EC50 that approximates it; bounds were set here for any values at or beyond the usual limits of such assays
condition.parameters: source organism: Listeria monocytogenes J0161
pKd: −log10 of the molar value.
measured.parameter: pKd

Note to self: pKd recorded for "AALEGLSGF" was ≤ 5.30

* * *

tested.on: HLA-A*11:01
method: IEDB peptide-MHC binding, purified MHC/competitive/radioactivity; filed as Kd, often an IC50 or EC50 that approximates it; bounds were set here for any values at or beyond the usual limits of such assays
condition.parameters: source organism: SARS coronavirus Tor2
Documented log10 of Kd across a set of sequences
Short version: log10 scale, Kd, nM.

Examples from the recorded data:
   residue_codes  measured_parameter  result_number
0     VTLAILTALR         log10 of Kd           2.17
1     AQPLPQRQKK         log10 of Kd           3.09
2     AAYYFMKFRR         log10 of Kd           2.12
3     MQKESDDYIK         log10 of Kd           2.56
4     RQVVNVITTK         log10 of Kd           2.33
5     SLIDLQELGK         log10 of Kd           2.25
6      SVKGLTPSK         log10 of Kd           1.12
7      ATSRTLSYY         log10 of Kd           1.45
8      GLFCLLNRY         log10 of Kd           3.13
9     LLMPILTLTR         log10 of Kd           2.30

Note to self: log10 of Kd recorded for "VTTIMFLAR" was 1.39

Note to self: log10 of Kd recorded for "SQNPLAELK" was 2.49

Note to self: log10 of Kd recorded for "WFFNNYLRK" was 1.91

Note to self: log10 of Kd recorded for "NQATTKTTFK" was 2.64

Note to self: log10 of Kd recorded for "ASANLAATK" was 1.16

Note to self: log10 of Kd recorded for "LFQLCTFTK" was 2.28

Note to self: log10 of Kd recorded for "TVVIGTSKFY" was 2.91

* * *

tested.on: HLA-A*24:02
method: IEDB peptide-MHC binding, purified MHC/competitive/radioactivity; filed as Kd, often an IC50 or EC50 that approximates it; bounds were set here for any values at or beyond the usual limits of such assays
condition.parameters: source organism: SARS coronavirus Tor2
measured.parameter: Kd (µM)
Please respond with the number in µM and leave the unit unwritten.

>>> print(df.to_string())
   residue_codes  measured_parameter  unit_of_measure  result_number
0      GYTMHANYI                  Kd               µM           13.5
1      PYRVVVLSF                  Kd               µM            0.1
2      CFANKHAGF                  Kd               µM         0.0274
3      HFAIGLALY                  Kd               µM           11.1
4      LFADINGKL                  Kd               µM          0.722
5     SWFITQRNFF                  Kd               µM        3.5e-05
6     LYDANYFVCW                  Kd               µM         0.0554
7      VMPLSAPTL                  Kd               µM           13.3
8      GYVTHGFNL                  Kd               µM           1.21
9      MFSPIVPFW                  Kd               µM          0.111

Now look at this one.
Note to self: Kd recorded for "VFYLYLTFYF" was 7.98e-05

* * *

tested.on: HLA-A*11:01
method: IEDB peptide-MHC binding, purified MHC/competitive/fluorescence; filed as Kd, often an IC50 or EC50 that approximates it; bounds were set here for any values at or beyond the usual limits of such assays
condition.parameters: source organism: Entamoeba histolytica HM-1:IMSS
pKd: −log10 of the molar value.
measured.parameter: pKd

Measured pKd (HLA-A*11:01), entry "NPAACSYMV" : ≤ 5.30

* * *

tested.on: HLA-C*07:02
method: IEDB peptide-MHC binding, purified MHC/direct/fluorescence; filed as Kd, often an IC50 or EC50 that approximates it; bounds were set here for any values at or beyond the usual limits of such assays
condition.parameters: source organism: Salmonella enterica subsp. enterica serovar Typhi str. CT18
measured.parameter: pKd
FYI, pKd means -log10 of a concentration in mol per litre.

Note to self: pKd recorded for "RRRQWASCM" was 7.35

* * *

tested.on: HLA-B*15:01
method: IEDB peptide-MHC binding, purified MHC/direct/fluorescence; filed as Kd, often an IC50 or EC50 that approximates it; bounds were set here for any values at or beyond the usual limits of such assays
condition.parameters: source organism: Yellow fever virus 17D
measured.parameter: Kd

Note to self: Kd recorded for "CRTAFKPVL" was ≥ 20 µM

* * *

tested.on: HLA-A*02:01
method: IEDB peptide-MHC binding, purified MHC/competitive/fluorescence; bounds were set here for any values at or beyond the usual limits of such assays
condition.parameters: source organism: Variola virus
measured.parameter: IC50 (µM)
Please respond with the number in µM and leave the unit unwritten.

   residue_codes  result_number
0      TSQVPKLLL           47.4

Now look at this one.
Measured IC50 (HLA-A*02:01), entry "QIGDIIIAV" : 0.293

* * *

tested.on: HLA-C*14:02
method: IEDB peptide-MHC binding, purified MHC/direct/fluorescence; filed as Kd, often an IC50 or EC50 that approximates it; bounds were set here for any values at or beyond the usual limits of such assays
condition.parameters: source organism: Vibrio cholerae AM-19226
measured.parameter: Kd (µM)
Please respond with the number in µM and leave the unit unwritten.

Note to self: Kd recorded for "YALPSAGAF" was 0.046
